Entries below carry reported pIC50 on JAK1 (Homo sapiens (Human)).
Sequence (P23458 whole entry, species assumed): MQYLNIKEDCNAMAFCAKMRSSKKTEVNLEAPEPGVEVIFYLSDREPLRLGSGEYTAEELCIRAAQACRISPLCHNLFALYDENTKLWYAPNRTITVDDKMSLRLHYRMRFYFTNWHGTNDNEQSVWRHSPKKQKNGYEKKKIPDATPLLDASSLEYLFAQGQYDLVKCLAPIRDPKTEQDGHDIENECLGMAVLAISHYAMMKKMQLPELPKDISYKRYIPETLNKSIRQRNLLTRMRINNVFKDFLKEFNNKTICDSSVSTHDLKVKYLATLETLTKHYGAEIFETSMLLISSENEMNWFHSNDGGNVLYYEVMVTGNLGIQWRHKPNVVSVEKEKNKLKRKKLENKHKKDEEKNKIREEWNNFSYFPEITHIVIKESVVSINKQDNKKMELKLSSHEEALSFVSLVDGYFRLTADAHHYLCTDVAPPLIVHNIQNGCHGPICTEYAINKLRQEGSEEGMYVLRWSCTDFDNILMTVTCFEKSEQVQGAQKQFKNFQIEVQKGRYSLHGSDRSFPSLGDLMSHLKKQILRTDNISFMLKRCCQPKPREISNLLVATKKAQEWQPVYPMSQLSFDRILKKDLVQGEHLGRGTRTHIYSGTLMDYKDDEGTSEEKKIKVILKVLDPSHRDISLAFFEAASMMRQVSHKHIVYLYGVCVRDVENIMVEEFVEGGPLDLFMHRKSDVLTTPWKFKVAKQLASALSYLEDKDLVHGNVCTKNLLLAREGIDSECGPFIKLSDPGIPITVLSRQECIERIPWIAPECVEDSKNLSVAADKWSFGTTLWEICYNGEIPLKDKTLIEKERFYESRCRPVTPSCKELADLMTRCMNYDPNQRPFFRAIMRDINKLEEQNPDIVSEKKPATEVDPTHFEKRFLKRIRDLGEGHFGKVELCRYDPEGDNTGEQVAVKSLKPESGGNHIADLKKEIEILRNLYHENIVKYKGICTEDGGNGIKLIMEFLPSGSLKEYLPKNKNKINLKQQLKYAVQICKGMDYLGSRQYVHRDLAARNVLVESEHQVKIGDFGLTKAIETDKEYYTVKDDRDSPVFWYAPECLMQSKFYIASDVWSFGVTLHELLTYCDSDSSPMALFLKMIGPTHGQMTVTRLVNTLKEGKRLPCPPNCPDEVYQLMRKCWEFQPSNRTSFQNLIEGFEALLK
One number for each entry, as −log10 of the molar value.

Report pIC50 for every entry below.
1. CNC(=O)c1n[nH]c2cc(-c3cc(F)c(O)cc3CC(F)(F)F)nc(NCc3ccccc3CS(N)(=O)=O)c12 [Example 64]
2. CNC(=O)c1n[nH]c2cc(-c3cc(F)c(O)cc3CC(F)(F)F)nc(NCc3ccccc3N(C)S(=O)(=O)c3ccc(C)nc3)c12 [Example 69]

**Result**
1: 8.48; 2: 7.79

Report pIC50 for every entry below.
1. CCc1cc(O)ccc1-c1cc2[nH]ncc2c(N2CCC(OC)CC2)n1 [Example 128]
2. CCc1cc(O)c(F)cc1-c1cc2[nH]nc(C(=O)NC)c2c(NCc2ccccc2N(C)S(C)(=O)=O)n1 [Example 19]

**Result**
[8.44, 9.05]

The values you see were collected from patent US9518052B2.
